system: Tov112D; experiment: Primary qHTS to identify gynecologic anti-cancer compounds using libraries of approved drugs and bioactive compounds (AID 1345084); details: Gynecologic cancer cell panel viability, ATPlite luminescence, 48 h; series mostly up to 57.5 µM; also: % is scaled to controls: 0 for no effect and ±100 for the full control effect; nearly all actives have a fitted effect of over 55% in size
Results filed as inconclusive are left out. The source made the active and inactive calls. Calls follow the shape of the dose curve; as a rule, active = well fitted cell-killing curve with a large enough effect; inconclusive = small, poorly fitted or top-dose-only effect, or effect the other way; inactive = flat fitted curve, though single readings scatter.
Assay Endpoint: activity change, negative = cytotoxicity

1) NC1Nc2ccccc2C1(N)CC1NC(=O)C(Cc2ccccc2)NC(=O)C(Cc2ccccc2)NC1=O (centres undefined) : inactive
2) C=C(C(=O)O)[C@@H]1CC[C@H](C)[C@@H]2CC(=O)C(C)=C2C1 : inactive
3) C/C=C(\C)C(=O)OC[C@H]1O[C@@H](O[C@H]2[C@@H](O[C@H]3O[C@H](COC(=O)/C(C)=C/C)[C@@H](O)[C@H](O)[C@H]3O[C@@H]3O[C@H](CO)[C@@H](O)[C@H](OC(=O)/C(C)=C/C)[C@H]3O)O[C@H](COC(=O)/C(C)=C/C)[C@@H](O)[C@@H]2O)[C@H](O)[C@@H](O)[C@@H]1O : 2.79% [at 11.6 µM] (inactive)
4) CCC(C)C1NC(=O)C2C(C)CCN2C(=O)C(CC(O)CO)OC(=O)CCNC(=O)C(C)N(C)C(=O)C(C(C)C)N(C)C1=O (centres undefined) : inactive

----------
system: NIH3T3; test: qHTS assay to identify novel small-molecules to repurpose for Merkel cell carcinoma treatment (AID 1296009); conditions: MCC and control cell lines, CellTiter-Glo viability, 72 h; at 44.8 µM (top of the series) unless noted; also: nearly all actives have a fitted effect of over 60% in size
Inconclusive results are not listed. Calls of active or inactive are those of the source. Calls come from the whole dose curve; as a rule, active = well fitted inhibition curve with a large enough effect; inconclusive = small, poorly fitted or top-dose-only effect; inactive = flat fitted curve, though single readings scatter.
Assay Endpoint: outcome

1) COc1ccc(CC(=O)NCc2ccccc2-c2ccccc2C(=O)NCCc2cccnc2)cc1 : inactive
2) COC(=O)[C@H](O)[C@H]1C(C)(C)[C@H](OC(C)=O)[C@@]2(O)C(=O)[C@]1(C)C1CC[C@]3(C)C(CC(=O)O[C@H]3c3ccoc3)[C@]13O[C@@H]32 (some centres not stated) : inactive [at 17.4 µM]
3) C=C1C(O)CC2C(C(=O)O)=COC(OC3OC(CO)C(O)C(O)C3OC(=O)/C=C\c3ccc(O)cc3)C12 (configuration not stated) : inactive [at 17.4 µM]
4) CC1=C2C3OC(=O)C(C)C3(O)CCC2(C)CCC1 (configuration not stated) : inactive
5) NC(N)=NCCC[C@H](NC(=O)c1sccc1NS(=O)(=O)c1cccc2nsnc12)C(=O)O : inactive
6) C=C(C)C(O)COc1ccc(CC(=O)O)cc1 (configuration not stated) : inactive

Report value only: outcome, NIH3T3, C=C1C(=O)OC2CC(COC(=O)C(C)C)=C(C(C)CCCOC(C)=O)[C@@H](OC(C)=O)C12 (some centres not stated)
inactive [at 17.4 µM]

# assay system NIH3T3: give outcome of CC(=O)OCC(Cc1ccccc1)NC(=O)C(Cc1ccccc1)NC(=O)c1ccccc1 (configuration not stated)
inactive [at 17.4 µM]

Report outcome on NIH3T3 for this entry: Fc1cccc(CN(C2=NCCN2)c2c(Cl)cccc2Cl)c1
inactive

Quote NIH3T3 outcome for entry COc1cn(-c2ccc(-n3cccn3)cc2F)nc(-c2ccnn2-c2ccccc2)c1=O .
inactive

Under NIH3T3, report outcome for O=C(/C=C/c1ccc(O)c(O)c1)O[C@@H]1[C@@H](O)[C@H](OC2CCCCC2O)O[C@H](CO)[C@H]1O (some centres not stated)
inactive [at 17.4 µM]

With NIH3T3 as the test system, provide measured outcome for this molecule: CC[C@@H](Nc1c(Nc2cccc(C(=O)N(C)C)c2O)c(=O)c1=O)c1ccc(C)o1
inactive

Name the value of outcome reported for CC1(C)CC[C@]2(C(=O)O[C@@H]3O[C@H](CO)[C@@H](O)[C@H](O)[C@H]3O)CC[C@]3(C)C(=CCC4[C@@]5(C)C[C@@H](O)[C@H](O)[C@@](C)(CO)C5[C@H](O)C[C@]43C)C2C1 (some centres not stated) when tested on NIH3T3.
inactive [at 17.4 µM]

Give NIH3T3 outcome for the following molecule: CC1(C)O[C@H]2CC(=O)OC[C@@]23C1=C(O)C(=O)[C@]1(C)C3CC[C@@]2(C)[C@H](c3ccoc3)OC(=O)[C@H]3O[C@]321 (some centres not stated)
inactive [at 17.4 µM]

Enter outcome (test system NIH3T3) for COC(=O)C1(O)C(OC(C)=O)CCC2C3(CC(c4ccoc4)OC3=O)C(C)=CCC21C(=O)OC (configuration not stated)
inactive [at 17.4 µM]

Report the value of outcome obtained on NIH3T3 for O=C(/C=C/c1ccc(O)c(O)c1)OC[C@H]1O[C@@H](OC2CCCCC2O)[C@H](O)[C@@H](O)[C@@H]1O (some centres not stated) .
inactive [at 17.4 µM]

----------
target: Luciferin 4-monooxygenase (Photinus pyralis); assay: Primary firefly luciferase (FLuc) qHTS assay for identification of artifact compounds. (AID 1845220); conditions: purified firefly luciferase, luminescence, 5 min; series mostly up to 54.1 µM; also: nearly all actives have a fitted effect of over 60% in size;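 as to activity change, negative = inhibition: plate controls were DMSO vehicle for no effect and no enzyme for full effect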
The source made the active and inactive calls. The call rests on the fitted dose curve; in most records, active means well fitted inhibition curve with a large enough effect; inconclusive means small, poorly fitted or top-dose-only effect; inactive means flat fitted curve, though single readings scatter.
Assay Endpoint: activity change, negative = inhibition

# example entries with known answers
1. COc1cc(C)c(C(=O)OC2C(C)OC(OC3CCC(C)C4C3C=C(C)C3/C(C)=C\CC/C(C)=C/C5(C)C=C(C(=O)O)C(C)CC56OC(=O)/C(=C(\O)C34C)C6=O)C(O)C2O)c(OC)c1 (stereo not given) : 1.3% [at 11.6 µM] (inactive)
2. C[C@]1(O)CC[C@@H]2C(C(=O)O)=CO[C@@H](O[C@@H]3O[C@H](CO)[C@@H](O)[C@H](O)[C@H]3O)[C@@H]21 : inactive
3. C[C@@H](NC(=O)c1cc(C(=O)N[C@@H](Cc2ccccc2)[C@H](O)CNC2CC2)cc(N(C)S(C)(=O)=O)c1)c1ccccc1 : inactive
4. C[C@]12CC[C@@H]3c4ccc(O)cc4CC[C@H]3[C@@H]1C[C@@H](O[C@@H]1O[C@H](C(=O)O)[C@@H](O)[C@H](O)[C@H]1O)[C@@H]2O : inactive
5. C/C=C(\C)C(=O)OC[C@H]1O[C@@H](O[C@H]2[C@@H](O[C@H]3O[C@H](COC(=O)/C(C)=C/C)[C@@H](O)[C@H](O)[C@H]3O[C@@H]3O[C@H](CO)[C@@H](O)[C@H](OC(=O)/C(C)=C/C)[C@H]3O)O[C@H](COC(=O)/C(C)=C/C)[C@@H](O)[C@@H]2O)[C@H](O)[C@@H](O)[C@@H]1O : 2.77% [at 11.6 µM] (inactive)

Find activity change, negative = inhibition for CC(=O)O[C@@H](C[C@@H]1C=C(C)C(=O)O1)[C@H](C)[C@H]1CCC2[C@@]3(C)CC[C@H](O[C@@H]4O[C@H](CO)[C@@H](O)[C@H](O)[C@H]4O[C@@H]4O[C@@H](C)[C@H](O)[C@@H](O)[C@H]4O)C(C)(C)C3CC[C@@]2(C)[C@@]12COC(=O)C2 (stereo not given in full) on Luciferin 4-monooxygenase (Photinus pyralis) and write it down.
-7.53% [at 11.6 µM] (inactive)

Enter recorded activity change, negative = inhibition with Luciferin 4-monooxygenase (Photinus pyralis) for C[C@]12CC/C(=N\OCC(=O)O)C=C1CC[C@@H]1[C@@H]2[C@@H](O)C[C@@]2(C)[C@H]1CC[C@]2(O)C(=O)CO here.
inactive

Write activity change, negative = inhibition of CC(=O)NC1C(OC2CCC3(C)C(CCC4(C)C3CC=C3C5CC(C)(C)CCC5(C(=O)O)C(O)CC34C)C2(C)C)OC(CO)C(O)C1O (stereo not given) ; system used: Luciferin 4-monooxygenase (Photinus pyralis)
inactive

Look up and report measured activity change, negative = inhibition (Luciferin 4-monooxygenase (Photinus pyralis)) for the following molecule: COc1cc2c(cc1O)CC(O)(CO)C(CO)C2c1ccc(OC2OC(CO)C(O)C(O)C2O)c(OC)c1 (stereo not given)
inactive

// fetch activity change, negative = inhibition for C=C1CC[C@@H]2[C@](C)(CO)[C@H](O[C@@H]3O[C@H](CO)[C@@H](O)[C@H](O)[C@H]3O)CC[C@@]2(C)[C@@H]1C/C=C1/C(=O)OC[C@H]1O ; system: Luciferin 4-monooxygenase (Photinus pyralis)
inactive

Find the measured activity change, negative = inhibition of C=C1C(O)CC2C(C(=O)O)=COC(O[C@@H]3O[C@H](COC(=O)c4ccc(O)cc4)[C@@H](O)[C@H](O)[C@H]3O)C12 (stereo not given in full) with Luciferin 4-monooxygenase (Photinus pyralis) as test system.
inactive

Fetch value of activity change, negative = inhibition on Luciferin 4-monooxygenase (Photinus pyralis) for COc1cc(/C=C/C(=O)O[C@H]2[C@H](O)[C@@H](CO)O[C@@]2(CO)O[C@H]2O[C@H](CO)[C@@H](O)[C@H](O)[C@H]2O)cc(OC)c1O .
inactive

Report its activity change, negative = inhibition with Luciferin 4-monooxygenase (Photinus pyralis) as the test system: CC1(C)CC[C@]2(C(=O)O[C@@H]3O[C@H](CO)[C@@H](O)[C@H](O)[C@H]3O)CC[C@]3(C)C(=CCC4[C@@]5(C)CC[C@H](O[C@@H]6O[C@H](C(=O)O)[C@@H](O)[C@H](O)[C@H]6OC6OC(CO)C(O)C(O)C6O)C(C)(C)C5CC[C@]43C)[C@@H]2C1 (stereo not given in full)
1.1% [at 11.6 µM] (inactive)

For Luciferin 4-monooxygenase (Photinus pyralis), give activity change, negative = inhibition of the listed molecule: CCNC(=O)C1CC(F)(c2ccc(CN3CCCC3)c(F)c2)C1 (stereo not given)
inactive

Find the measured activity change, negative = inhibition of C/C=C(\C)C(=O)OC1CC2C(CC=C3CC(OC4CC(OC)C(OC5CC(OC)C(OC6CC(OC)C(OC7CC(OC)C(OC8CC(OC)C(OC9OC(CO)C(O)C(O)C9O)C(C)O8)C(C)O7)C(C)O6)C(C)O5)C(C)O4)CCC32C)C2(O)CCC(C(C)=O)C12C (stereo not given) with Luciferin 4-monooxygenase (Photinus pyralis) as test system.
2.55% [at 11.6 µM] (inactive)

Under Luciferin 4-monooxygenase (Photinus pyralis): report activity change, negative = inhibition of CC(=C\C(C)O)/C=C(\C)C(=O)CC1CC(CC(N)=O)CC(=O)O1 (stereo not given) .
inactive

Provide activity change, negative = inhibition, system Luciferin 4-monooxygenase (Photinus pyralis), entry Cc1cc(CO)c(O)c(C(=O)CC2CC(=O)NC(=O)C2)c1
inactive

Look up and report measured activity change, negative = inhibition (Luciferin 4-monooxygenase (Photinus pyralis)) for the following molecule: COc1ccc(C2C(C(=O)O)C(C(=O)O)C2c2ccc(OC)cc2O[C@@H]2O[C@H](CO)[C@@H](O)[C@H](O)[C@H]2O)c(O[C@@H]2O[C@H](CO)[C@@H](O)[C@H](O)[C@H]2O)c1 (stereo not given in full)
inactive

Look up and report activity change, negative = inhibition, with Luciferin 4-monooxygenase (Photinus pyralis) as system, for CC(O)C1NC(=O)C2CCCN2C1=O (stereo not given)
inactive

State measured activity change, negative = inhibition of the molecule C[C@@]1(O)[C@H](O)[C@@H](CO)O[C@H]1n1cnc2c(=O)[nH]c(N)nc21 with Luciferin 4-monooxygenase (Photinus pyralis).
inactive

Jot down activity change, negative = inhibition (Luciferin 4-monooxygenase (Photinus pyralis)) of CC1CC(=O)[C@]2(O)C(C(=O)OCCc3ccc(O)c(O)c3)=CO[C@@H](O[C@@H]3O[C@H](CO)[C@@H](O)[C@H](O)[C@H]3O)[C@H]12 (stereo not given in full) .
inactive

Find the measured activity change, negative = inhibition of C=C[C@@](C)(CCC=C(C)C)O[C@@H]1O[C@H](CO[C@@H]2OC[C@H](O)[C@H](O)[C@H]2O)[C@@H](O)[C@H](O)[C@H]1O with Luciferin 4-monooxygenase (Photinus pyralis) as test system.
inactive

Check Luciferin 4-monooxygenase (Photinus pyralis) data and give activity change, negative = inhibition for C/C=C1\[C@H](O[C@@H]2O[C@H](CO)[C@@H](O)[C@H](O)[C@H]2O)OC=C(C(=O)OCCc2ccc(O)cc2)[C@H]1CC(=O)OCCc1ccc(O)cc1 .
inactive

Tell me its activity change, negative = inhibition on Luciferin 4-monooxygenase (Photinus pyralis): CC1(C)C(=O)CCC2(C)C1C(O)C=C1COC(=O)C12O (stereo not given)
inactive

Report its activity change, negative = inhibition with Luciferin 4-monooxygenase (Photinus pyralis) as the test system: CC(C)(O)C1CCC2(C)CCCC(C)(O)C2C1 (stereo not given)
inactive

Measured values drawn from PubChem BioAssay (NCATS) for this set.
